# measurement_target: human factor Xa (Homo sapiens)
# Construct: released from the colourless chromogenic substrate by human factor Xa; purchased Roche
# Sequence (P00742 235-488 limits assumed): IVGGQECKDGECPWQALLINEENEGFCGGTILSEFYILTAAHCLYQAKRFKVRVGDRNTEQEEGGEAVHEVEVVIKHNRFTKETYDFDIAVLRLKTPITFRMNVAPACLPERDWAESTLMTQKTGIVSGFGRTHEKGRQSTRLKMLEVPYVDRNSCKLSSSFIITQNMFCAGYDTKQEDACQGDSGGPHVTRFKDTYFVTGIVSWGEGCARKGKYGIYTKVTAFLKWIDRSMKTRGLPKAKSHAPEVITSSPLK
# Sequence (P00742 41-179 partner limits assumed): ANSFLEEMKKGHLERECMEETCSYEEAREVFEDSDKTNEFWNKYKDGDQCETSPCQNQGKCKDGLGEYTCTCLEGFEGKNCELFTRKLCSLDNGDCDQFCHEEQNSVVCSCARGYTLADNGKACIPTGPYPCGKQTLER
# protocol_description: inhibition of factor Xa, enzyme-kinetic measurement with chromogenic substrate
# Assay type: biochemical
# condition_summary: substrate Chromozym X 200 μMol/l, factor Xa (Roche) 0.175 U/ml, pH 8.0, 37° C., photometric at 405 nm
reported_metric: IC50 (µM)
Only the number, expressed in µM, is required.

Look at this compound and give its reported IC50. Cc1cc(N(CCC(=O)O)C(=O)Cc2cc(C(=N)N)ccc2O)ccc1C(=O)N1CCCC1
0.85

Param item: Cc1cc(NC(=O)Cc2cc(C(=N)N)ccc2O)ccc1C(=O)N1CCCC1
0.03

Param item: CCOC(=O)CCN(C(=O)Cc1cc(C(=N)N)ccc1O)c1ccc(C(=O)N2CCCC2)c(C)c1
0.12

Param item: Cc1cc(NC(=O)Cc2cc(C(=N)N)ccc2O)ccc1C(=O)N1CCCCC1
0.085

Param item: Cc1cc(NC(=O)Cc2cc(C(=N)N)ccc2O)ccc1-c1ccccc1S(N)(=O)=O
0.26

Param item: CCOC(=O)CCN(C(=O)Cc1cc(C(=N)N)ccc1OCc1ccccc1)c1ccc(C(=O)N2CCCC2)c(C)c1
0.68

These entries and their values trace back to patent US7425641B2.
